Data origin: ChEMBL document CHEMBL1144284

Please provide measured Ki for the entries that follow.
Molecular target: Alpha-1A adrenergic receptor (Homo sapiens)
Sequence (P35348 whole entry): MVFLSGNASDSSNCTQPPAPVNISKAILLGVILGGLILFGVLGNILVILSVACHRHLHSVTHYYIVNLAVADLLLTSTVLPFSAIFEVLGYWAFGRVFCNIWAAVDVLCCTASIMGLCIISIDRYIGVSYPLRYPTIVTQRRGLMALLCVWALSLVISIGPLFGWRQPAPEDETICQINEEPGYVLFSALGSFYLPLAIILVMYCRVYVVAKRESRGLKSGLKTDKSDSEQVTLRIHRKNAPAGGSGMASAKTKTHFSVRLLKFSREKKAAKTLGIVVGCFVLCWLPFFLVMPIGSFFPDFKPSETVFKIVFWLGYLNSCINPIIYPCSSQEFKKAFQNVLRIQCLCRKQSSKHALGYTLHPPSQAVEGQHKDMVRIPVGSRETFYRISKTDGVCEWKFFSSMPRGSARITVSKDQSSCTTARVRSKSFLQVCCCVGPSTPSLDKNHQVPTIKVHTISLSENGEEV
Assay: Binding constant measured against Alpha-1A adrenergic receptor in human prostate; +:inactive
Format: tissue-based, Prostate gland
Please respond with the number in nM and leave the unit unwritten.

Q: // fetch Alpha-1A adrenergic receptor (Homo sapiens) Ki for CCS(=O)(=O)Nc1cccc(C(=C2CCCCC2)c2c[nH]cn2)c1
Ans: 490

Q: // fetch Alpha-1A adrenergic receptor (Homo sapiens) Ki for N=C(CC(O)COc1ccccc1-c1ccccc1)N1CCCCC1 (centres undefined)
Ans: 2500

Q: // fetch Alpha-1A adrenergic receptor (Homo sapiens) Ki for C[C@H](CN1CCN(c2cc(F)c(F)cc2F)CC1)N1C(=O)CC2(CCCC2)CC1=O
Ans: 290

Q: // fetch Alpha-1A adrenergic receptor (Homo sapiens) Ki for COc1cc2c3c(c1OC)-c1cc4c(cc1C[C@@H]3N(C)CC2)OCO4
Ans: 430
